Test system: SW-620 colon
ASSAY SUMMARY: NCI-60 one-dose screen, 48 h (100 = growth as untreated, 0 = no growth, -100 = all killed)
TEST SETTINGS: 10 µM unless noted
About 83,000 compounds went through this panel and 20% of them were active in at least one assay; those are over-represented in the sample as a whole.

{"CHEMICAL SMILES": "CN(C)CCC=C1c2ccccc2C(C)(C)c2ccccc21", "growth (%)": 86}
{"CHEMICAL SMILES": "O=C(N/N=C/c1ccncc1)c1ccc(C(F)(F)F)nc1Nc1cccc(C(F)(F)F)c1", "growth (%)": 14.8}
{"CHEMICAL SMILES": "O=C(/C=C/c1c(Cl)nc2sccn12)c1nccs1", "growth (%)": 77.8}
{"CHEMICAL SMILES": "COc1ccc2c(c1)O/C(=C\\c1cccc(OCC(=O)Nc3nc4ccccc4s3)c1)C2=O", "growth (%)": 79}
{"CHEMICAL SMILES": "c1ccc(Nc2nc(-c3ccccn3)cs2)nc1", "growth (%)": 30.2}
{"CHEMICAL SMILES": "CC(=O)c1ccc(NCC(=O)Nc2ccccn2)cc1", "growth (%)": 102}

* * *

System: NCI/ADR-RES ovarian
ASSAY SUMMARY: NCI-60 one-dose screen, 48 h
TEST SETTINGS: 10 µM unless noted
About 83,000 compounds went through this panel and 20% of them were active in at least one assay; those are over-represented in the sample as a whole. Active and inactive are the calls of the source. The calls were made as follows: active = growth percent below 10; inactive = the rest.
Possible outcomes: yes (1) = active, no (0) = inactive

{"COMPOUND": "O=C1/C(=C/c2ccc(Br)cc2)C=C(c2ccccc2)N1CCc1ccccc1", "CLASS LABEL": "no (0)"}
{"COMPOUND": "COc1ccc(-c2c(N)n[nH]c2-c2ccc(Cl)cc2O)cc1OC", "CLASS LABEL": "no (0)"}
{"COMPOUND": "COc1ccc(Nc2nnc(SCc3ccccc3F)s2)cc1", "CLASS LABEL": "no (0)"}
{"COMPOUND": "COc1cc(-c2n/c(=C\\c3c(O)[nH]c4ccc(Cl)cc34)cc3c2=Nc2ccccc2-3)cc(OC)c1OC", "CLASS LABEL": "no (0)"}
{"COMPOUND": "COc1ccc2occ(C3=C(c4c[nH]c5ccccc45)C(=O)N(O)C3=O)c2c1", "CLASS LABEL": "no (0)"}
{"COMPOUND": "CCN1C(=O)N(CC)C2Nn3c(s/c(=C\\c4ccc(Cl)cc4Cl)c3=O)=NC21 (stereo not given)", "CLASS LABEL": "no (0)"}
{"COMPOUND": "COCCc1ccc(OCC(O)CNC(C)C)cc1 (stereo not given)", "CLASS LABEL": "no (0)"}
{"COMPOUND": "Cc1ccc(/C=C2\\C(=O)N(C)c3ccc(S(=O)(=O)Nc4ccc(C(C)(C)C)cc4)cc32)s1", "CLASS LABEL": "no (0)"}
{"COMPOUND": "O=c1[nH]nc(-c2ccccc2)c2c(-c3ccccc3)onc12", "CLASS LABEL": "no (0)"}
{"COMPOUND": "Cc1cc(O)c(C2=NN(c3ccc(S(N)(=O)=O)cc3)C(c3ccccc3Cl)C2)cc1Cl (stereo not given)", "CLASS LABEL": "yes (1)"}

* * *

Test system: NCI/ADR-RES ovarian
ASSAY SUMMARY: NCI-60 one-dose screen, 48 h (100 = growth as untreated, 0 = no growth, -100 = all killed)
TEST SETTINGS: 10 µM unless noted
The panel holds about 83,000 compounds, 20% with a hit somewhere; the sample as a whole holds those more often.
Checkbox rule: growth lower than 70% = satisfied; growth not lower than 70% = not satisfied.

{"COMPOUND": "O=C(Nc1cccc(Oc2nnc(Cl)c3ccccc23)c1)Nc1ccc(Cl)c(C(F)(F)F)c1", "CLASS LABEL": "satisfied"}
{"COMPOUND": "COc1c(CCC[P+](c2ccccc2)(c2ccccc2)c2ccccc2)cc2c(c1OC)OCO2", "CLASS LABEL": "not satisfied"}
{"COMPOUND": "COc1cccc(-c2nn(-c3ccccc3)cc2-c2ccnc(NCCCNC(=O)c3cccc(C(F)(F)F)c3)c2)c1", "CLASS LABEL": "satisfied"}
{"COMPOUND": "O=C1/C(=C\\c2c[nH]c3ccccc23)c2ccccc2N1c1c(Cl)cccc1Cl", "CLASS LABEL": "satisfied"}
{"COMPOUND": "CC1CC2Oc3ccc(Cl)cc3C(=O)N2O1 (centres undefined)", "CLASS LABEL": "not satisfied"}
{"COMPOUND": "COc1cccc(-c2nn(-c3ccccc3)cc2-c2ccnc(NCCNC(=O)Nc3ccccc3)c2)c1", "CLASS LABEL": "satisfied"}
{"COMPOUND": "Cc1ccc(C(=O)C2=C(O)C(=O)N(Cc3cccnc3)C2c2ccccc2F)o1 (centres undefined)", "CLASS LABEL": "not satisfied"}
{"COMPOUND": "N#Cc1c(N)nc(NCCO)nc1-c1ccc(F)cc1", "CLASS LABEL": "not satisfied"}

* * *

Measured growth accompanies every entry in the list below.
Tested on: OVCAR-5 ovarian
ASSAY SUMMARY: NCI-60 one-dose screen, 48 h (100 = growth as untreated, 0 = no growth, -100 = all killed)
TEST SETTINGS: 10 µM unless noted
The panel holds about 83,000 compounds, 20% with a hit somewhere; the sample as a whole holds those more often.
RESULT TYPE: growth (%)

{"CHEMICAL SMILES": "CC(C)(C)CC(C)(C)Nc1c(-c2ccncc2)nc2cnccn12", "RESULT TYPE": "growth", "READOUT NUMBER": 93.7}
{"CHEMICAL SMILES": "O=C(/C=C/c1ccc(Cl)nc1)c1ccc(Cl)cc1Cl", "RESULT TYPE": "growth", "READOUT NUMBER": 91.4}
{"CHEMICAL SMILES": "NS(=O)(=O)c1cnccc1Sc1ccncc1S(N)(=O)=O", "RESULT TYPE": "growth", "READOUT NUMBER": 101}
{"CHEMICAL SMILES": "O=c1[nH]nc(-c2ccccc2)c2c(-c3ccccc3)onc12", "RESULT TYPE": "growth", "READOUT NUMBER": 58.7}
{"CHEMICAL SMILES": "O=C(N/N=C/c1ccncc1)c1ccc(C(F)(F)F)nc1Nc1cccc(C(F)(F)F)c1", "RESULT TYPE": "growth", "READOUT NUMBER": 24.7}
{"CHEMICAL SMILES": "COc1ccc2cc(-c3cc(OC)c(OC)c(OC)c3)c(=O)oc2c1", "RESULT TYPE": "growth", "READOUT NUMBER": 94.2}
{"CHEMICAL SMILES": "O=C(CCc1nnc(CN(c2ccccc2)c2ccccc2)o1)c1nc2ccccc2[nH]1", "RESULT TYPE": "growth", "READOUT NUMBER": 108}
{"CHEMICAL SMILES": "Cc1cc(NCCCCNc2ccnc3cc(Cl)ccc23)nc(Nc2ccc(C(=O)N3CCCCC3)cc2)n1", "RESULT TYPE": "growth", "READOUT NUMBER": 82.7}
{"CHEMICAL SMILES": "COC(=O)c1c2c(c[n+]([O-])c1C)C(=O)C=CC2=O", "RESULT TYPE": "growth", "READOUT NUMBER": 118}
{"CHEMICAL SMILES": "Cc1ccc(Nc2ccc(Nc3ccc(C)cc3)c3c2C(=O)c2cccc(O)c2C3=O)cc1", "RESULT TYPE": "growth", "READOUT NUMBER": 82.1}

* * *

System: HOP-62 NSCLC
ASSAY SUMMARY: NCI-60 one-dose screen, 48 h (100 = growth as untreated, 0 = no growth, -100 = all killed)
TEST SETTINGS: 10 µM unless noted
Compounds without any hit were thinned out: in the full panel of roughly 83,000, 20% have a hit.
Measured growth accompanies every entry in the list below.

{"MOLECULE": "CC1OC(O[C@H]2/C=C/C=C/C=C/C=C/C=C/C=C/C=C/[C@H](C)[C@@H](O)[C@@H](C)[C@H](C)OC(=O)CC(O)CC(O)CCC(O)C(O)CC(O)C[C@]3(O)C[C@H](O)C(C(=O)O)C(C2)O3)C(O)[C@H](N)C1O (some centres undefined)", "growth / %": -82.5}
{"MOLECULE": "CC(=O)c1nc(Nc2ccc(C)cc2)sc1C", "growth / %": 85.7}
{"MOLECULE": "Cc1nn(-c2ccccc2)c(Oc2ccc(Cl)cc2)c1/C=N\\N=c1/sc2ccccc2n1C", "growth / %": 86.7}
{"MOLECULE": "N#CC1=C(/N=C/c2ccccc2)Oc2c(ccc3ccccc23)C1c1ccccc1 (centres undefined)", "growth / %": 21.1}
